Entry source: patent US11999727B2

# IC50 per record follows
tested on: HAP1 MTAP-intact cell line; assay: SDMA in-cell western assay, HAP1 MTAP-intact; assay type: cell-based; settings: Homo sapiens, HAP1, SDMA in-cell western, HAP1 MTAP-intact; read-out: MTAP HAP1 intact IC50
Experimental Readout: IC50

>>> measurement("C[C@@H]1CC[C@@H](c2ccc(O)c(C(C)(C)C)c2)N(C(=O)C(=O)Nc2cncc(C(N)=O)c2)C1 (racemic)")
"> 1000 nM"
>>> measurement("CC(=O)Nc1ccc([C@@H]2CC[C@@H](C)CN2C(=O)C(=O)Nc2cncc(C(N)=O)c2)cc1 (single isomer, unassigned)")
"> 1000 nM"
>>> measurement("CCc1cc(NC(=O)C(=O)N2C[C@@H](C)CC[C@@H]2c2ccc3sc([C@H]4CCN(C)C(C)(C)C4)nc3c2)cnc1N (single isomer, unassigned)")
"< 100 nM"
>>> measurement("NC(=O)c1cncc(NC(=O)C(=O)N2CCCC3(C2)OC[C@@H]2C[C@@H]23)c1 (mixture of isomers)")
"> 1000 nM"
>>> measurement("Cc1cc(NC(=O)C(=O)N2C[C@H](C)CC[C@H]2c2cncc(Cl)c2)cnc1N (racemic)")
"> 1000 nM"
>>> measurement("COc1ncc(NC(=O)C(=O)N2C[C@@H](C)CC[C@@H]2c2ccc3c(c2)OCCN3)cc1C(N)=O (racemic)")
"> 1000 nM"
>>> measurement("CCc1cc(NC(=O)C(=O)N2C[C@@H](C)CC[C@@H]2c2cccc([C@H]3CCN(C)C3)c2)cnc1N")
"100 to 1000 nM"
>>> measurement("C[C@H]1CC[C@H](c2ccc(O)c(F)c2)N(C(=O)C(=O)Nc2cncc(C(N)=O)c2)C1 (single isomer, unassigned)")
"100 to 1000 nM"
>>> measurement("C[C@H]1CC[C@H](c2cc(F)c(F)c(Cl)c2)N(C(=O)C(=O)Nc2cncc(C(N)=O)c2)C1 (single isomer, unassigned)")
"> 1000 nM"
>>> measurement("Cc1cc(NC(=O)C(=O)N2C[C@@H](C)CC[C@@H]2c2ccc(C(F)(F)F)cc2)cnc1N (single isomer, unassigned)")
"> 1000 nM"
>>> measurement("C[C@@H]1CC[C@@H](c2ccc(NS(C)(=O)=O)nc2)N(C(=O)C(=O)Nc2cncc(C(N)=O)c2)C1 (single isomer, unassigned)")
"> 1000 nM"
>>> measurement("CCc1cc(NC(=O)C(=O)N2C[C@H](C)CC[C@H]2c2ccc(C(=O)NC)s2)cnc1N (single isomer, unassigned)")
"> 1000 nM"
>>> measurement("C[C@H]1CC[C@H](c2ccc(N)nc2)N(C(=O)C(=O)Nc2cncc(C(N)=O)c2)C1 (single isomer, unassigned)")
"> 1000 nM"
>>> measurement("Cc1cc(NC(=O)C(=O)N2C[C@@H](C)CC(F)(F)[C@@H]2c2ccc(F)cc2)cnc1N (racemic)")
"100 to 1000 nM"
>>> measurement("C[C@@H]1CC[C@@H](c2ccc(F)cc2)N(C(=O)C(=O)Nc2cnc(N)c(C(F)F)c2)C1 (racemic)")
"> 1000 nM"
>>> measurement("C[C@H]1CC[C@H](c2cc(Cl)cc(C(F)(F)F)c2)N(C(=O)C(=O)Nc2cncc(C(N)=O)c2)C1 (single isomer, unassigned)")
"> 1000 nM"
>>> measurement("Cc1cc(NC(=O)C(=O)N2C[C@@H](C)CC[C@@H]2c2cscn2)cnc1N (single isomer, unassigned)")
"> 1000 nM"
>>> measurement("NC(=O)c1cncc(NC(=O)C(=O)N2CCCCC2C2CCCC2)c1 (centres unmarked)")
"> 1000 nM"
>>> measurement("CNc1cccc([C@@H]2CC[C@@H](C)CN2C(=O)C(=O)Nc2cnc(N)c(C)c2)c1 (single isomer, unassigned)")
"100 to 1000 nM"
>>> measurement("C[C@@H]1CC[C@@H](c2ccc(C3(O)CCC3)cc2)N(C(=O)C(=O)Nc2cncc(C(N)=O)c2)C1 (racemic)")
"> 1000 nM"
>>> measurement("CCc1cc(NC(=O)C(=O)N2C[C@@H](C)CC[C@@H]2c2ccc3sc(CC4(N(C)C)COC4)nc3c2)cnc1N")
"100 to 1000 nM"
>>> measurement("COc1ncc(NC(=O)C(=O)N2C[C@H](C)C(F)(F)C[C@H]2c2ccc(C)nc2)cc1C(N)=O (single isomer, unassigned)")
"> 1000 nM"
>>> measurement("CCc1cc(NC(=O)C(=O)N2C[C@@H](C)CC[C@@H]2c2ccc(C(N)=O)s2)cnc1N (single isomer, unassigned)")
"> 1000 nM"
>>> measurement("Cc1cc(NC(=O)C(=O)N2C[C@H](C)CC[C@H]2C(C)C)cnc1N (racemic)")
"> 1000 nM"
>>> measurement("Cc1cc(NC(=O)C(=O)N2CC(C)CCC2C2CNC(=O)C2)cnc1N (centres unmarked)")
"> 1000 nM"
>>> measurement("COc1cc(NC(=O)C(=O)N2C[C@@H](C)CC[C@@H]2c2ccc3sc(C4CCN(C)CC4)nc3c2)cnc1N")
"< 100 nM"
